Molecular target: immunoproteasome LMP7/B5i subunit (Homo sapiens, UniProt P20618+P28062)
Assay: Caliper-based proteasome enzymatic activity assay, LMP7
Conditions: human recombinant immunoproteasome 0.3 nM, FAM-peptide substrate 1 μM, 3 h at rt
observation type: IC50 (nM)

A = CC(C)(C)/C=C(\C#N)C(=O)N1C[C@H](F)C[C@@H]1COC(=O)N[C@@H](Cc1ccccc1)B(O)O
B = CC(C)(C=C(C#N)C(=O)N1CCCC[C@@H]1COC(=O)N[C@@H](Cc1ccccc1)B(O)O)N1CCCCC1
Exercise: Looking at recorded values for IC50, does A or B come in lower? Pick one; state its label.
Key: A
(A: 1 nM, B: 16 nM)

A = C=CC(=O)N1CCS(=O)(=O)C[C@@H]1COC(=O)N[C@@H](Cc1coc2ccccc12)B(O)O
B = Cc1ccc(C[C@H](NC(=O)OC[C@H]2COCCN2C(=O)C(C#N)=CC(C)(C)N2CCC(F)(F)C2)B(O)O)cc1
Exercise: Looking at recorded values for IC50, does A or B come in lower? Pick one; state its label.
Key: B
(B: 2.7 nM, A: 4.2 nM)

====

Biological target: constitutive proteasome β5c unit (Homo sapiens, UniProt P20618+P28074)
Assay: Caliper-based proteasome enzymatic activity assay, β5c
Conditions: human recombinant constitutive proteasome 0.3 nM, FAM-peptide substrate 1 μM, 3 h at rt; read-out: β5c subunit IC50
pIC50: −log10 of the molar value.
observation type: pIC50

Recorded results for 6 compounds are shown here.
# chemical structure, observation type, reported result
measured = [
    ("CC(C)C[C@H](NC(=O)OC[C@H]1CCCCN1C(=O)C(C#N)=CC(C)(C)N1CCC(F)(F)C1)B(O)O", "pIC50", 5.84),
    ("C=CC(=O)N1CCC[C@@H]1COC(=O)N[C@@H](Cc1ccccc1)B(O)O", "pIC50", 5.31),
    ("Cc1ccc(C[C@H](NC(=O)OC[C@H]2CCCCN2C(=O)C(C#N)=CC(C)(C)N2CCC(F)(F)C2)B(O)O)cc1", "pIC50", 6.29),
    ("C[C@H]1CC[C@H](COC(=O)N[C@@H](Cc2coc3ccccc23)B(O)O)N1C(=O)C(C#N)=CC(C)(C)N1CCOCC1", "pIC50", 6.75),
    ("CC(C)(C)C=C(C#N)C(=O)N1CCCC[C@@H]1COC(=O)N[C@@H](Cc1coc2ccccc12)B(O)O", "pIC50", 6.76),
    ("Cc1ccc(C[C@H](NC(=O)OC[C@H]2COCCN2C(=O)C(C#N)=CC(C)(C)N2CCC(F)(F)C2)B(O)O)cc1", "pIC50", 6.25),
]

1 = CC(C)(C=C(C#N)C(=O)N1CCCC[C@@H]1COC(=O)N[C@@H](Cc1ccc(F)cc1)B(O)O)N1CCN(C2COC2)CC1
2 = C=CC(=O)N1C[C@H](F)C[C@@H]1COC(=O)N[C@@H](Cc1ccccc1)B(O)O
Exercise: Looking at recorded values for pIC50, does 1 or 2 come in lower? Pick one; state its label.
Key: 2

1 = CC(C)(C)C=C(C#N)C(=O)N1CCOC[C@@H]1COC(=O)N[C@@H](Cc1ccccc1)B(O)O
2 = C=CC(=O)N1C[C@@H]2C[C@@H]2[C@@H]1COC(=O)N[C@@H](Cc1coc2ccccc12)B(O)O
Exercise: Of 1 and 2 , which one carries the higher reported pIC50? Pick one; state its label.
Key: 2
(2: 6.47, 1: 6.17)

1 = CC(C)(C=C(C#N)C(=O)N1CCCCC[C@H]1COC(=O)N[C@@H](Cc1coc2ccccc12)B(O)O)N1CCC(F)(F)C1
2 = Cc1ccc(C[C@H](NC(=O)OC[C@H]2CCCCN2C(=O)C(C#N)=CC(C)(C)N2CCOCC2)B(O)O)cc1
Exercise: Looking at recorded values for pIC50, does 1 or 2 come in lower? Pick one; state its label.
Key: 2
(2: 6.07, 1: 6.35)
